The reported measurements were obtained from PubChem BioAssay (NCI).

System: 786-0 renal
Assay: NCI-60 one-dose screen, 48 h
Settings: 10 µM unless noted
Procedure: Cells are grown in 96 well plates and exposed to the test compound for 48 hours. Compounds are tested at a single concentration, which is 10^-5 M for most compounds. The reported endpoint is percent growth (GI% or GIPRCNT), where numbers from 0 - 100% represent growth inhibition, and numbers from -100% - 0 represent cell death. For example, a value of 40 represents 60% growth inhibition. A value of 0 means no net growth occurred over the course of the experiment. […]
This is part of a sample that, as a whole, favours compounds with a hit. Of some 83,000 tested, about 20% had one in any assay. The source made the active and inactive calls. Rule for the calls: active = growth percent below 10; inactive = the rest.
Classes used: 1 = active, 0 = inactive

1) COc1ccc(C(O)(c2ccccc2)C(C(=O)O)c2ccccc2)cc1 (centres undefined): 0
2) Cc1ccnc2c(NC(C)CCCN)cc(O)c(O)c12 (centres undefined): 0
3) COc1cc(-c2nn(-c3ccc(NC(=O)c4ccc(Cl)c(Cl)c4)cc3)cc2-c2ccncc2)ccc1Cl: 1
4) CC[C@H](Nc1ncnc2nc[nH]c12)c1nc2cccc(NCc3ccc(C(=O)NO)o3)c2c(=O)n1-c1ccccc1: 0
5) COc1ccc(-c2nnc(SCC(=O)Nc3ccc(C(=O)/C=C/c4cc(OC)c(OC)c(OC)c4)cc3)n2-c2ccccc2)cc1OC: 1
6) CC(=O)Nc1nc(C)c(C(=O)N/N=C/N2CCCCC2)s1: 0
7) CCCCCCCCCCCCCCCCNC(=S)N/N=C/c1ccc(O)cc1O: 0
8) CCOc1ccc(Br)cc1/C=C(\C#N)c1ccc([N+](=O)[O-])cc1: 0
9) COC(=O)C1CC(=O)N(C(=O)Nc2ccc(Cl)cc2Cl)C1 (centres undefined): 0

---

Tested on: UACC-257 melanoma
Assay: NCI-60 one-dose screen, 48 h (100 = growth as untreated, 0 = no growth, -100 = all killed)
Settings: 10 µM unless noted
About 83,000 compounds went through this panel and 20% of them were active in at least one assay; those are over-represented in the sample as a whole.
experimental endpoint: growth (%)

1) C[C@]12C=CC(=O)C=C1[C@@H](F)C[C@@H]1[C@@H]2[C@@H](O)C[C@@]2(C)[C@H]1CC[C@]2(O)C(=O)CO: 96.1
2) CCCCCCC(=O)C(C)C: 92.8
3) COc1ccc(-c2nc(SCC(C)C)nc(Nc3ccc(C(=O)O)cc3)c2C#N)cc1: 96.9
4) CCCC(=O)NNc1[nH]c(-c2ccc(OC)cc2)cc1C(=O)OCC: 105
5) CCCCCSc1ccc2nc(NC(=O)OCCC)sc2c1: 63.1
6) COc1cc(/C=C/C(=O)c2ccc(F)cc2)ccc1OCCCCOc1cc2c(cc1OC)C(=O)N1CCCC1C=N2 (centres undefined): 2.17
7) Oc1ccc2ccccc2c1/C=N\Nc1ccccn1: 12.9
8) CCc1ccc(C(=Nc2ccc(N(C)C(=O)CN3CCN(C)CC3)cc2)c2c(O)[nH]c3ccc(C(=O)OC)cc23)cc1: -67.4
9) Cc1c(CN(C)C)cc(C(C)C)cc1C(C)C: 108

---

System: HCC-2998 colon
Assay: NCI-60 one-dose screen, 48 h
Conditions: 10 µM unless noted
This is part of a sample that, as a whole, favours compounds with a hit. Of some 83,000 tested, about 20% had one in any assay. The source made the active and inactive calls. Rule for the calls: active = growth percent below 10; inactive = the rest.
Possible outcomes: True (active), False (inactive)

1. CC[N+](C)(C)N: False
2. CC(C)(CNC1CCCCC1)OC(=O)c1ccccc1: False
3. CCC(C)[C@H](NC(=O)Nc1cc(C(F)(F)F)cc(C(F)(F)F)c1)C(=O)N[C@@H](Cc1cn(C)cn1)C(=O)OC (stereo partly specified): True
4. O=C1/C(=N\c2cc(=O)[nH]n2S(=O)(=O)c2ccccc2)Nc2ccccc21: False
5. COc1ccc(NC(=O)/C=C(C)/C=C/C=C(C)/C=C/C2=C(C)CCCC2(C)C)cc1: False
6. C/C=C(/C)C(=O)OC1C=C(CO)C(=O)C(OC(=O)/C(C)=C\C)C1C(C)C (stereo unspecified): True

---

growth for assorted compounds
System: TK-10 renal
Test: NCI-60 one-dose screen, 48 h (100 = growth as untreated, 0 = no growth, -100 = all killed)
Details: 10 µM unless noted
Compounds without any hit were thinned out: in the full panel of roughly 83,000, 20% have a hit. The source made the active and inactive calls. Rule for the calls: active = growth percent below 10; inactive = the rest.
experimental endpoint: growth

1. CCn1cnc(C[C@H](NC(=O)[C@@H](NC(=O)Nc2cc(C(F)(F)F)cc(C(F)(F)F)c2)C(C)(C)C)C(=O)OC)c1: -97.6% [100 µM] (active)
2. COc1ccc(Cn2cc3c(c2-c2ccc(O)cc2)CCc2cnoc2-3)cc1: 72.8% (inactive)
3. Brc1c(-c2ccncc2)nc2n1CCS2: 97.5% (inactive)
4. C/C=C(/C)C(=O)OC1C=C(CO)C(=O)C(OC(=O)/C(C)=C\C)C1C(C)C (stereo not given): -88.8% (active)
5. COC(=O)/C(Br)=C/c1c[nH]c2ccc(Br)cc12: 78.3% (inactive)
6. O=C(/C=C1\C(=O)N(Cc2ccccc2)c2ccccc21)c1ccc(OCCN2CCCCC2)cc1: 40.3% (inactive)
7. Nc1nc2c(c3cnccc13)C(c1ccc(Cl)c(Cl)c1)Cc1cnccc1-2 (stereo not given): -40% (active)
8. N=c1c2c(=O)n3c(nc2nc2sc4ccc(Cl)cc4n12)-c1ccccc1Sc1ccccc1-3: 47% (inactive)
9. Cc1ncc(C(=O)Nc2ccc(CN3CCN(C)CC3)c(C(F)(F)F)c2)cc1C#Cc1cnc(NC2CC2)c2ncccc12: -92.2% (active)
10. COc1cccc(-c2cc(-c3cc4ccccc4oc3=O)nc(N)n2)c1: 74.5% (inactive)
11. NC(N)=Nc1ccc(/C=C2\C=Cc3ccccc32)cc1: 78.1% (inactive)
12. Brc1ccc(-c2nc3ccccc3s2)cc1: 142% (inactive)
13. COCn1c(C(=O)OC)cc2oc(/C=C3/SC(=S)N(N)C3=O)cc21: 101% (inactive)
14. C[C@]12CC[C@H]3[C@@H](CC[C@H]4C[C@@H](O)CC[C@@]43C)[C@@H]1CC(=O)C2: 94.2% (inactive)
15. S=C(N/N=C/c1cc(Cl)cc(Cl)c1)NC12CC3CC(CC(C3)C1)C2: 11.1% (inactive)
16. O=C(O)/C(Br)=C/c1c[nH]c2ccc(Br)cc12: 117% (inactive)
17. CCC(C)(C)c1ccc(OCCCCCCN2CCN(c3ccc(C)c(Cl)c3)CC2)cc1: 110% (inactive)
18. COc1ccc(/C=N/c2cc(C(C)(C)C)nn2-c2ccccc2)cc1: 117% (inactive)
19. CCCCCN1CCN(C(CC(=O)c2ccccc2)C(=O)c2ccccc2)CC1 (stereo not given): 99.9% (inactive)
20. Nc1cc(N)c2nc(-c3ccccc3)c(NCCc3ccc(Cl)c(Cl)c3)nc2c1: -92.5% (active)

---

Tested on: SF-295 CNS
Assay: NCI-60 one-dose screen, 48 h
Details: 10 µM unless noted
This is part of a sample that, as a whole, favours compounds with a hit. Of some 83,000 tested, about 20% had one in any assay. Calls of active or inactive are those of the source. The calls were made as follows: active = growth percent below 10; inactive = the rest.
Classes used: active, inactive

1) N=C(N)c1ccc(-c2ccc(-c3cc(Cl)cc(Cl)c3)s2)cc1: active
2) CC([C@H]1CC=C2C3CCC4=C[C@@H](N(C)C)CC[C@]4(C)C3CC[C@@]21C)N(C)C (stereo partly drawn): active
3) Nc1ccc(S(=O)(=O)Nc2cc(F)cc(F)c2)cc1: inactive
4) CC[C@H](Nc1ncnc2nc[nH]c12)c1nc2cccc(NCc3ccc(C(=O)NO)nc3)c2c(=O)n1-c1ccccc1: inactive
5) CC(=O)Nc1nc(C)c(C(=O)NNS(=O)(=O)c2ccccc2)s1: inactive
6) COc1ccc(-c2cc(C#N)c(NNC(C)=O)[nH]2)cc1: inactive
7) OCCN1CCN(CC/C=C2/c3ccccc3Sc3ccc(C(F)(F)F)cc32)CC1: inactive
8) Cc1cc2c(-c3nc4ccccc4n3C)c(O)c(O)cc2c(O)c1-c1c(C)cc2c(-c3nc4ccccc4n3C)c(O)c(O)cc2c1O: inactive
9) COc1cc(-c2nn(-c3ccc(NC(=O)Nc4cc(C(F)(F)F)cc(C(F)(F)F)c4)cc3)cc2-c2ccncc2)ccc1Cl: active
10) CC(O)c1cc[cH-]c1.[Fe+2].c1cc[cH-]c1 (stereo not drawn): inactive
11) CN1NC(c2ccccc2)NN(C)C1=O: inactive
12) CC(=O)c1ccc2c(c1)c1ccccc1n2C: inactive
13) N#Cc1c(N)nc(Nc2nc3ccccc3[nH]2)nc1-c1ccc(Cl)cc1: inactive

---

System: SN12C renal
Assay: NCI-60 one-dose screen, 48 h (100 = growth as untreated, 0 = no growth, -100 = all killed)
Settings: 10 µM unless noted
The panel holds about 83,000 compounds, 20% with a hit somewhere; the sample as a whole holds those more often.
Overview of reported growth across a group of compounds:
experimental endpoint: growth (%)

1. [2H]c1nc(=Nc2cc(NC(=O)C=C)c(N(C)CCN(C)C)cc2OC)[nH]c(-c2cn(C([2H])([2H])[2H])c3ccccc23)c1[2H]: 35.3
2. CN(C)CCOC(=O)C(C)(C)C: 102
3. CC(=O)c1cc(Nc2cc(C)nc(N)n2)cc(C(C)=O)c1: 94.1
4. Cc1ccccc1-n1c(C)nc2cc(NC(=O)c3ccc(Cl)cc3)ccc2c1=O: 68.6
5. COC(=O)/C(Br)=C/c1c[nH]c2ccc(Br)cc12: 88.1
6. Cc1ccc(C(C)C)c(OCc2ccc(C(=O)N/N=C/c3cccc(O)c3O)cc2)c1: 35
7. COC1=C(OC)C(=O)c2ccccc2C1=O: 108
8. COC(=O)C(C)[C@H]1CC[C@@H]2[C@]1(C)CC=C1[C@]23C=C[C@]2(C[C@@H](OC(C)=O)CC[C@]12C)C(C(=O)OC)C3C(=O)OC (stereo not given in full): 100
9. CCOC(=O)C1=NN(c2ccccc2)C2=NC(=O)/C(=C\c3cn(-c4ccccc4)nc3-c3cc4ccccc4o3)C(=O)N12: 94.3
10. O=C1C=C(OCC=C(C(F)(F)F)C(F)(F)F)c2ccccc2C1=O: -15.1
